Where do these numbers come from? They come from PubChem BioAssay.

ASSAY_NOTES: small-molecule microarray binders of probe aNog, primary screen, biochemical, biotinylated probe, 635/667 nm fluorescence (AID 1115);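 further: probe is biotinylated aNog protein used at 0.15 µg/mL for 1 h at 4 C; z-score combines 667 nm fluorescence of each spot with its signal to noise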
MEASUREMENT_CONTEXT: higher = more signal
MEASUREMENT_NAME: composite z-score
Would you mind answering with just the numeric figure?

{"COMPOUND": "COC(=O)C1(CC(C)C)C=C2C(=C(C(C)C)C(=O)C2C)CN1 (configuration not stated)", "composite z-score": 0.595}
{"COMPOUND": "COc1ccc(CC[C@H](O)c2cccc(OCC(=O)OC(C)(C)C)c2)cc1", "composite z-score": -0.216}
{"COMPOUND": "C=CC[C@@]12N=C(c3ccc(OCCCO)cc3)O[C@@H]1c1ccccc1N(Cc1ccccc1)C2=O", "composite z-score": 1.1}

Answer with the recorded composite z-score for the compound listed here: CCOC(=O)C[C@H]1[C@H](OC(=O)Cc2ccc3c(c2)OCO3)[C@@H](NC(=O)c2ccccc2)c2cc(OCCCO)ccc2N1C(=O)Cc1ccc(OC)cc1 -0.196

Tell us which composite z-score value is on record for CCC(CC)C(O)C1C=CC2C(=O)N(C)C(=O)C2N1N1CCCCC1 (configuration not stated) 1.57

Annotate the compound CC(C)C[C@@H]1NC(=O)[C@@]23C(=O)N[C@@H](Cc4ccccc4)C2[C@H](C)[C@@]2(C)O[C@H]2C3/C=C/C/C=C\CNC(=O)[C@@H](CC(C)C)NC1=O (some centres not stated) with its measured composite z-score. -0.35

Check the records and state composite z-score for C=CCN1C(=O)[C@]2(O[C@H](CCn3cc([C@H](O)c4ccccc4)nn3)[C@@H]([Si](C)(C)c3ccc(OC)cc3)[C@@H]2C)c2cc(N3C(=O)c4cccc5cccc3c45)ccc21 -0.0809

Please give the documented composite z-score of COCC(=C=CC[C@@H](O)c1ccc(OCCO)cc1)C[C@@H](O)COCc1ccccc1 0.629

Using known records, supply composite z-score for N[C@@H](Cc1ccccc1)Cn1cc(C2(O)CCCCC2)nn1 -0.0827

# return recorded composite z-score for entry CC(C)C[C@H]1NC(=O)[C@@H](C)NC(=O)[C@@]23C(=O)N[C@@H](Cc4ccccc4)C2[C@H](C)[C@@]2(C)O[C@H]2C3/C=C/C/C=C\CNC1=O (some centres not stated) -0.205

Name the recorded composite z-score of the compound listed here: O=c1cccc(-c2ccccc2C(F)(F)F)o1 1.08

Note composite z-score for the compound shown: COC(=O)c1ccc([C@H](NC(=O)c2ccccc2)[C@]2(C)C[C@H]2C2CCCCC2)cc1 1.68

---

ASSAY_NOTES: small-molecule microarray binders of probe aEGFR, primary screen, biochemical, biotinylated probe, 635/667 nm fluorescence (AID 1097);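 further: probe is a biotinylated anti-EGFR antibody binding compounds printed on slides; score combines fluorescence near 667 nm and signal to noise of each spot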
MEASUREMENT_CONTEXT: higher = more signal
MEASUREMENT_NAME: composite z-score
Lab note: record the figure alone, no unit after it.

{"SMILES_DATA": "C=C(CCCC)C(=O)CC[C@H](OC(C)=O)c1ccccc1OCCO", "composite z-score": -0.177}

Check the records and state composite z-score for O=C1O[C@@H](c2ccccc2)[C@@H](c2ccccc2)N2[C@@H](c3ccc(O)cc3)[C@]3(C(=O)Nc4ccc(C#CC5=CCCCC5)cc43)[C@@H](C(=O)N3CCCCCCC3)[C@H]12 0.465

Read off the recorded composite z-score for COC(=O)[C@@]1(Cc2ccc(F)cc2)[C@H]2c3cc(C(=O)N(C)C)n(CCN4CCOCC4)c3C[C@H]2CN1C(=O)c1ccccc1 0.865

Respond only with composite z-score recorded for C=C(/C(=C/C[C@@H](OC(C)=O)c1ccccc1OCCO)c1cc(C(=O)OC)ccc1OC)C(C)C 0.198
